# Tested on: Pseudomonas fluorescens HPPD polypeptide (wild-type and mutants)
# RUN_DESCRIPTION: Coupled HPPD activity assay: turnover and residual turnover in crude HPPD polypeptide extracts with and without Cmpd. 1
# Assay type: biochemical
# SETUP_CONDITIONS: absence of Cmpd. 1; changes in absorbance (OD) at 320 nm in the coupled assay, 30 min
ENDPOINT_LABEL: Turnover

Consider the molecule shown here: SEQ ID NO:36 (protein, mutant HPPD polypeptide) MADLYENPMGLMGFEFIEFASPTPGTLEPIFEIMGFTKVATHRSKNVHLYRQGEINLILNNEPNSIASYFAAEHGPSVCGMAFRVKDSQKAYNRALELGAQPIHIDTGPMELNLPAIKGIGGAPLYLIDRFGEGSSIYDIDFVYLEGVERNPVGAGLKVIDHLTHNVYRGRMVYWANFYEKLFNFREARYFDIKGEYTGLTSKAMSAPDGMIRIPLNEESSKGAGQIEEFLMQFNGEGIQHVAFLTDDLVKTWDALKKIGMRFMTAPGDEYYEMLEGRLPDHGEPVDQLQARGILLDGSSVEGDKRLLLQIFSEQLMGPVFFEFIQRKGDDGFGPHSFKVLFEQMERDQVRRGVLTAD What is its recorded Turnover?
0.244

Consider the molecule shown here: SEQ ID NO:32 (protein, mutant HPPD polypeptide) MADLYENPMGLMGFEFIEFASPTPGTLEPIFEIMGFTKVATHRSKNVHLYRQGEINLILNNEPNSIASYFAAEHGPSVCGMAFRVKDSQKAYNRALELGAQPIHIDTGPMELNLPAIKGIGGAPLYLIDRFGEGSSIYDIDFVYLEGVERNPVGAGLKVIDHLTHNVYRGRMVYWANFYEKLFNFREARYFDIKGEYTGLTSKAMSAPDGMIRIPLNEESSKGAGQIEEFLMQFNGEGIQHVAFLTDDLVKTWDALKKIGMRFMTAPGDEYYEMLEGRLPDHGEPVDQLQARGILLDGSSVEGDKRLLLQIFSEQLMGPVFFEFIQRKGDDGFGPHSFKVLFESMERDQVRRGVLTAD What is its recorded Turnover?
0.269

Consider the molecule shown here: SEQ ID NO:67 (protein, mutant HPPD polypeptide) MADLYENPMGLMGFEFIEFASPTPGTLEPIFEIMGFTKVATHRSKNVHLYRQGEINLILNNEPNSIASYFAAEHGPSVCGMAFRVKDSQKAYNRALELGAQPIHIDTGPMELNLPAIKGIGGAPLYLIDRFGEGSSIYDIDFVYLEGVERNPVGAGLKVIDHLTHNVYRGRMVYWANFYEKLFNFREARYFDIKGEYTGLTSKAMSAPDGMIRIALNEESSKGAGQIEEFLMQFNGEGIQHVAFLTDDLVKTWDALKKIGMRFLTAPGDEYYEMLEGRLPDHGEPVDQLQARGILLDGSSVEGDKRLLLQIFSEQLMGPVFFEFIQRKGDDGFGPDSFKVLFESVERDQVRRGVLTAD What is its recorded Turnover?
0.141

Consider the molecule shown here: SEQ ID NO:64 (protein, mutant HPPD polypeptide) MADLYENPMGLMGFEFIEFASPTPGTLEPIFEIMGFTKVATHRSKNVHLYRQGEINLILNNEPNSIASYFAAEHGPSVCGMAFRVKDSQKAYNRALELGAQPIHIDTGPMELNLPAIKGIGGAPLYLIDRFGEGSSIYDIDFVYLEGVERNPVGAGLKVIDHLTHNVYRGRMVYWANFYEKLFNFREARYFDIKGEYTGLTSKAMSAPDGMIKIPLNEESSKGAGQIEEFLMQFNGEGIQHVAFLTDDLVKTWDALKKIGMRFLTAPGDEYYEMLEGRLPDHGEPVDQLQARGILLDGSSVEGDKRLLLQIFSEQLMGPVFFEFIQRKGDDGFGPHSFKVLFESMERDQVRRGVLTAD What is its recorded Turnover?
0.295

Consider the molecule shown here: SEQ ID NO:4 (protein, mutant HPPD polypeptide) MADLYENPMGLMGFEFIEFASPTPGTLEPIFEIMGFTKVATHRSKNVHLYRQGEINLILNNEPNSIASYFAAEHGPSVCGMAFRVKDSQKAYNRALELGAQPIHIDTGPMELNLPAIKGIGGAPLYLIDRFGEGSSIYDIDFVYLEGVERNPVGAGLKVIDHLTHNVYRGRMVYWANFYEKLFNFREARYFDIKGEYTGLTSKAMSAPDGMIRIPLNEESSKGAGQIEEFLMQFNGEGIQHVAFLTDDLVKTWDALKKIGMRFMTAPGDEYYEMLEGRLPDHGEPVDQLQARGILLDGSSVEGDKRLLLQIFSEQLMGPVFFEFIQRKGDDGFGPDSFKVLFESIERDQVRRGVLTAD What is its recorded Turnover?
0.121

Consider the molecule shown here: SEQ ID NO:7 (protein, mutant HPPD polypeptide) MADLYENPMGLMGFEFIEFASPTPGTLEPIFEIMGFTKVATHRSKNVHLYRQGEINLILNNEPNSIASYFAAEHGPSVCGMAFRVKDSQKAYNRALELGAQPIHIDTGPMELNLPAIKGIGGAPLYLIDRFGEGSSIYDIDFVYLEGVERNPVGAGLKVIDHLTHNVYRGRMVYWANFYEKLFNFREARYFDIKGEYTGLTSKAMSAPDGMIRIPLNEESSKGAGQIEEFLMQFNGEGIQHVAFLTDDLVKTWDALKKIGMRFLTAPGDEYYEMLEGRLPDHGEPVDQLQARGILLDGSSVEGDKRLLLQIFSEKLMGPVFFEFIQRKGDDGFGPDSFKVLFESIERDQVRRGVLTAD What is its recorded Turnover?
0.126

Consider the molecule shown here: SEQ ID NO:18 (protein, mutant HPPD polypeptide) MADLYENPMGLMGFEFIEFASPTPGTLEPIFEIMGFTKVATHRSKNVHLYRQGEINLILNNEPNSIASYFAAEHGPSVCGMAFRVKDSQKAYNRALELGAQPIHIDTGPMELNLPAIKGIGGAPLYLIDRFGEGSSIYDIDFVYLEGVERNPVGAGLKVIDHLTHNVYRGRMVYWANFYEKLFNFREARYFDIKGEYTGLTSKAMSAPDGMIRIPLNEESSKGAGQIEEFLMQFNGEGIQHVAFLTDDLVKTWDALKKIGMRFMTAPGDEYYEMLEGRLPDHGEPVDQLQARGILLDGSSVEGDKRLLLQIFSEKLMGPVFFEFIQRKGDDGFGPDSFKVLFEQMERDQVRRGVLTAD What is its recorded Turnover?
0.221
